All figures here come from paper PMC8879959.

Consider the following compounds and their measured Number of Writhes readings.
System: acetic acid-induced stress mice
method-summary: Chemical induced stress (acetic acid model, writhes)
Format: in vivo, Balb/C mice
assay-context: flavonoids 10 mg/kg, standard diazepam 2 mg/kg IP, 15 days; acetic acid i.p. 0.1 mL (6% v/v), writhes within 20 min; mean ± SEM, n = 8
measure: Number of Writhes

INSERT INTO measurements (compound, measure, observed) VALUES
  ('O=c1c(O)c(-c2ccc(C(F)(F)F)cc2)oc2ccccc12 [OF6]', 'Number of Writhes', 15.88),
  ('CN(C)c1ccc(-c2cc(=O)c3ccccc3o2)cc1 [F5]', 'Number of Writhes', 16.31),
  ('CN(C)c1ccc(-c2oc3ccccc3c(=O)c2O)cc1 [OF5]', 'Number of Writhes', 16.44),
  ('O=c1c(O)c(-c2ccc(Cl)cc2)oc2ccccc12 [OF4]', 'Number of Writhes', 14.18),
  ('O=c1cc(-c2ccc(C(F)(F)F)cc2)oc2ccccc12 [F6]', 'Number of Writhes', 17.01),
  ('O=c1cc(-c2ccccc2)oc2ccccc12 [F1]', 'Number of Writhes', 19.45),
  ('O=c1cc(-c2ccc(Cl)cc2)oc2ccccc12 [F4]', 'Number of Writhes', 16.21),
  ('O=c1c(O)c(-c2ccccc2)oc2ccccc12 [OF1]', 'Number of Writhes', 17.32);

====

Test system: mice
method-summary: Biochemical parameters in blood after restraint stress; on Total Ch (blood total cholesterol): unit not given here
Format: in vivo, Balb/C mice
assay-context: flavonoids 10 mg/kg, standard diazepam 2 mg/kg, 15 days, mean ± SEM
measure: Total Ch (blood total cholesterol)

INSERT INTO results (compound, measured_on, measure, observed) VALUES
  ('O=c1cc(-c2ccc(Cl)cc2)oc2ccccc12', 'mice', 'Total Ch (blood total cholesterol)', 80.76),
  ('Cc1ccc(-c2oc3ccccc3c(=O)c2O)cc1', 'mice', 'Total Ch (blood total cholesterol)', 76.82),
  ('O=c1cc(-c2ccccc2)oc2ccccc12', 'mice', 'Total Ch (blood total cholesterol)', 81.33),
  ('Cc1ccc(-c2cc(=O)c3ccccc3o2)cc1', 'mice', 'Total Ch (blood total cholesterol)', 78.61),
  ('CN(C)c1ccc(-c2cc(=O)c3ccccc3o2)cc1', 'mice', 'Total Ch (blood total cholesterol)', 81.82),
  ('O=c1cc(-c2ccc(C(F)(F)F)cc2)oc2ccccc12', 'mice', 'Total Ch (blood total cholesterol)', 82.01),
  ('CN(C)c1ccc(-c2oc3ccccc3c(=O)c2O)cc1', 'mice', 'Total Ch (blood total cholesterol)', 77.91),
  ('O=c1c(O)c(-c2ccc(C(F)(F)F)cc2)oc2ccccc12', 'mice', 'Total Ch (blood total cholesterol)', 77.02),
  ('COc1ccc(-c2cc(=O)c3ccccc3o2)cc1', 'mice', 'Total Ch (blood total cholesterol)', 78.43),
  ('COc1ccc(-c2oc3ccccc3c(=O)c2O)cc1', 'mice', 'Total Ch (blood total cholesterol)', 76.09),
  ('O=c1c(O)c(-c2ccc(Cl)cc2)oc2ccccc12', 'mice', 'Total Ch (blood total cholesterol)', 78.33),
  ('CN1C(=O)CN=C(c2ccccc2)c2cc(Cl)ccc21 [Standard, Diazepam, reference compound]', 'mice', 'Total Ch (blood total cholesterol)', 75.62),
  ('O=c1c(O)c(-c2ccccc2)oc2ccccc12', 'mice', 'Total Ch (blood total cholesterol)', 80.81);

====

Test system: acetic acid-induced stress mice
method-summary: Chemical induced stress (acetic acid model, writhes)
Format: in vivo, Balb/C mice
assay-context: Mus musculus, ip, 360 h; read-out: Antistress Response (%)
measure: inhibition in vivo at 10 mg/kg (%)

INSERT INTO measurements (structure, display_unit, observed) VALUES
  ('O=c1cc(-c2ccccc2)oc2ccccc12', '%', 58.9),
  ('O=c1cc(-c2ccc(C(F)(F)F)cc2)oc2ccccc12', '%', 64.1),
  ('O=c1c(O)c(-c2ccccc2)oc2ccccc12', '%', 63.4);

====

Test system: mice
method-summary: Biochemical parameters in blood after restraint stress
Format: in vivo, Balb/C mice
assay-context: flavonoids 10 mg/kg, standard diazepam 2 mg/kg, 15 days, mean ± SEM
From the text: The adhesive tape was removed, and blood samples were collected. After blood collection, the animals were sacrificed, and the brain and vital organs were isolated and weighed. After restrain test, blood samples were collected for the assessment of blood glucose, triglycerides and total cholesterol levels, using available commercial kits. […]
measure: Glucose (blood)

INSERT INTO assay_data (structure, observed) VALUES
  ('CN(C)c1ccc(-c2oc3ccccc3c(=O)c2O)cc1', 101.09),
  ('O=c1c(O)c(-c2ccc(Cl)cc2)oc2ccccc12', 101.15),
  ('COc1ccc(-c2cc(=O)c3ccccc3o2)cc1', 98.45),
  ('COc1ccc(-c2oc3ccccc3c(=O)c2O)cc1', 97.06),
  ('O=c1cc(-c2ccc(Cl)cc2)oc2ccccc12', 100.92),
  ('CN(C)c1ccc(-c2cc(=O)c3ccccc3o2)cc1', 101.33),
  ('O=c1c(O)c(-c2ccc(C(F)(F)F)cc2)oc2ccccc12', 100.32),
  ('Cc1ccc(-c2oc3ccccc3c(=O)c2O)cc1', 97.56),
  ('Cc1ccc(-c2cc(=O)c3ccccc3o2)cc1', 99.23),
  ('O=c1cc(-c2ccc(C(F)(F)F)cc2)oc2ccccc12', 102.09);

====

TGs (blood triglycerides) values, listed per item
System: mice
method-summary: Biochemical parameters in blood after restraint stress; on TGs (blood triglycerides): unit not given here
Format: in vivo, Balb/C mice
assay-context: flavonoids 10 mg/kg, standard diazepam 2 mg/kg, 15 days, mean ± SEM
measure: TGs (blood triglycerides)

INSERT INTO measurements (molecule, observed) VALUES
  ('O=c1cc(-c2ccc(C(F)(F)F)cc2)oc2ccccc12 [F6]', 47.26),
  ('CN1C(=O)CN=C(c2ccccc2)c2cc(Cl)ccc21 [Standard, Diazepam, reference compound]', 38.52),
  ('O=c1cc(-c2ccc(Cl)cc2)oc2ccccc12 [F4]', 47.51),
  ('O=c1c(O)c(-c2ccc(C(F)(F)F)cc2)oc2ccccc12 [OF6]', 44.02),
  ('Cc1ccc(-c2cc(=O)c3ccccc3o2)cc1 [F2]', 45.09),
  ('O=c1c(O)c(-c2ccc(Cl)cc2)oc2ccccc12 [OF4]', 46.92),
  ('COc1ccc(-c2cc(=O)c3ccccc3o2)cc1 [F3]', 44.69),
  ('COc1ccc(-c2oc3ccccc3c(=O)c2O)cc1 [OF3]', 43.11),
  ('CN(C)c1ccc(-c2oc3ccccc3c(=O)c2O)cc1 [OF5]', 46.24),
  ('Cc1ccc(-c2oc3ccccc3c(=O)c2O)cc1 [OF2]', 42.88),
  ('O=c1cc(-c2ccccc2)oc2ccccc12 [F1]', 54.39),
  ('CN(C)c1ccc(-c2cc(=O)c3ccccc3o2)cc1 [F5]', 46.72),
  ('O=c1c(O)c(-c2ccccc2)oc2ccccc12 [OF1]', 51.22);

====

System: acetic acid-induced stress mice
method-summary: Chemical induced stress (acetic acid model, writhes)
Type: in vivo, Balb/C mice
assay-context: Mus musculus, ip, 360 h; read-out: Antistress Response (%)
measure: inhibition in vivo at 10 mg/kg (%)

INSERT INTO results (structure, observed) VALUES
  ('COc1ccc(-c2oc3ccccc3c(=O)c2O)cc1', 80.9),
  ('CN(C)c1ccc(-c2oc3ccccc3c(=O)c2O)cc1', 63.3),
  ('COc1ccc(-c2cc(=O)c3ccccc3o2)cc1', 74.4),
  ('CN(C)c1ccc(-c2cc(=O)c3ccccc3o2)cc1', 64.6),
  ('Cc1ccc(-c2cc(=O)c3ccccc3o2)cc1', 72.3),
  ('Cc1ccc(-c2oc3ccccc3c(=O)c2O)cc1', 74.3);

====

Quick reference: Glucose (blood) of the listed items.
Test system: mice
method-summary: Biochemical parameters in blood after restraint stress
Assay type: in vivo, Balb/C mice
assay-context: flavonoids 10 mg/kg, standard diazepam 2 mg/kg, 15 days, mean ± SEM
measure: Glucose (blood)

INSERT INTO measurements (compound, observed) VALUES
  ('O=c1c(O)c(-c2ccccc2)oc2ccccc12 [OF1]', '105 mg/dL'),
  ('CN1C(=O)CN=C(c2ccccc2)c2cc(Cl)ccc21 [Standard, Diazepam, reference compound]', '108 mg/dL'),
  ('O=c1cc(-c2ccccc2)oc2ccccc12 [F1]', '105 mg/dL');
